measured-on: Carbonic anhydrase (Candida glabrata CBS 138)
Sequence (Q6FTL6 whole entry): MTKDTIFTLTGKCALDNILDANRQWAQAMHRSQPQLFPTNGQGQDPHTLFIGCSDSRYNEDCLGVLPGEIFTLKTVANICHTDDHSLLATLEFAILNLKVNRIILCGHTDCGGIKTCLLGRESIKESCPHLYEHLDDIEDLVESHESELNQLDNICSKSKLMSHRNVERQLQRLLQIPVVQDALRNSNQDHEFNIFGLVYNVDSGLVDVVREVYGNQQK
method-description: Inhibition of recombinant Candida glabrata beta carbonic anhydrase NCE103 expressed in Escherichia coli preincubated for 15 mins by stopped-flow CO2 hydration assay
Exercise: state measured pKi for each of the molecules provided.
One number for each entry, as −log10 of the molar value.

# batch size: 6; output pKi per entry
1. NS(=O)(=O)c1ccc(/N=C2\C(=O)Nc3ccc([N+](=O)[O-])cc32)cc1
2. CN1C(=O)/C(=N\c2ccc(S(N)(=O)=O)cc2)c2ccccc21
3. NS(=O)(=O)c1ccc(N=C2C(=O)Nc3ccccc32)cc1
4. Cc1ccc2c(c1)/C(=N/c1cccc(S(N)(=O)=O)c1)C(=O)N2
5. NS(=O)(=O)c1ccccc1/N=C1\C(=O)Nc2ccc(OC(F)(F)F)cc21
6. NS(=O)(=O)c1ccccc1/N=C1\C(=O)Nc2ccccc21

result:
1. 7.64
2. 7.40
3. 7.32
4. 7.34
5. 6.81
6. 7.18

Recorded values, source ChEMBL document CHEMBL3785021.
